# Test system: M14
# experimental.protocol: NCI tumour cell line growth inhibition, 48 h
Activity calls are given as the source filed them. Rule as the data show it: active = GI50 up to about 1.1 µM and inactive = higher.
Bench note: report the call from active, inactive

CC(=O)NC(CS/N=N/c1[nH]cnc1C(N)=O)C(=O)O (stereo not given)	inactive
O=C(Nc1cccc([N+](=O)[O-])c1)C(=O)C(C(=O)c1ccccc1-c1ccccc1)C1OC(=O)c2ccccc21 (stereo not given)	inactive
CCc1nc(N)nc(N)c1-c1ccc(Cc2ccccc2)c([N+](=O)[O-])c1	active
CCCCN(CCCC)CCC(O)c1cc(-c2ccc(C(F)(F)F)cc2)nc(-c2ccc(C(F)(F)F)cc2)c1 (stereo not given)	inactive

// next entry
Query block: Per the records of this test, what outcome belongs to "COc1ccc2ccc([Se]c3ccc4ccc(OC)cc4c3)cc2c1" ?
Result block: inactive
